- Protocol summary: Cytotoxicity toward MT4 cells
- Type: cell-based
- Test parameters: human
Property: CC50

Quote CC50 reported for Cc1cn([C@H]2C[C@H](N=[N+]=[N-])[C@@H](CO)O2)c(=O)[nH]c1=O [AZT, zidovudine, reference compound] please.
> 370 nM

Reference for the values: paper PMC7238976
